- Read-out: Pro-epidermal growth factor (Homo sapiens) (UniProt P01133)
- MEASUREMENT NOTES: LTEA_HepaRG_EGF: Life Technologies and Expression Analysis (LTEA) Assay for Epidermal growth factor (EGF) using HepaRG (AID 2283489)
- CONDITIONS USED: mRNA level, 48 h; actives raise or lower the signal
The source made the active and inactive calls. How the source made its calls: active means hit-call score of the fitted dose curve at least 0.9, where 1 is the maximum; inactive means score below 0.9.
METRIC: outcome

CN(C)CCOC(c1ccccc1)c1ccccc1: inactive
CCCCC(CC)C(=O)O (stereo not drawn): inactive
OCC(CO)(CBr)CBr: inactive

====

- MEASUREMENT NOTES: ATG_E_Box_CIS: Attagene CIS-FACTORIAL HepG2 Assay for human Enhancer Box (E-box) (AID 2282936)
- CONDITIONS USED: HepG2 E-box cis-reporter transcription, actives raise or lower the signal
Calls of active or inactive are those of the source. How the source made its calls: active means hit-call score of the fitted dose curve at least 0.9, where 1 is the maximum; inactive means score below 0.9.
Please state which outcome applies, choosing from True = active, False = inactive

Clc1ccc2c(Cl)ccnc2c1: False
CC1=CC(=O)c2ccccc2C1=O: True
Oc1cc2ccccc2cc1O: False
Oc1c(Cl)ccc(Cl)c1Cl: False
CC1CCC(C(=O)O)CC1 (stereo not drawn): False
CC(C)(C)C1CCCCC1O (stereo not drawn): False
O=C1C=CC(=O)N1c1cccc(N2C(=O)C=CC2=O)c1: False
Cc1cc(C(=C2C=CC(=Nc3ccc(S(=O)(=O)O)cc3)C=C2)c2ccc(Nc3ccc(S(=O)(=O)O)cc3)cc2)cc(S(=O)(=O)O)c1N: False
O=C1c2ccccc2C(=O)c2c(O)c(O)cc(O)c21: True
CCCCCCCCCCCCCCCC(=O)OC: False

Recorded test outcome, item CC(O)COc1ccccc1 (stereo not drawn)
False

Try this molecule next: O=C1NS(=O)(=O)c2ccccc21
False

Try this molecule next: O=C(Nc1ccc(Cl)c(Cl)c1)c1cc(Cl)cc(Cl)c1O
False

====

- MEASUREMENT NOTES: CCTE_Mundy_HCI_Cortical_Synap_Neur_Matur_NeuriteSpotCountPerNeuriteLength: CCTE's Synaptogenesis and Neurite Maturation Assay in rat cortical cells for Neurite Spot Count per Neurite Length, Mundy Lab (AID 2284210)
The source made the active and inactive calls. The calls were made as follows: active = hit-call score of the fitted dose curve at least 0.9, where 1 is the maximum; inactive = score below 0.9.
Please state which outcome applies, choosing from 1 (active), -1 (inactive)

A selection of reference data follows.
O=C(CCCN1CCC(O)(c2ccc(Cl)cc2)CC1)c1ccc(F)cc1: 1
O=C1NS(=O)(=O)c2ccccc21: -1
CN(Cc1cnc2nc(N)nc(N)c2n1)c1ccc(C(=O)N[C@@H](CCC(=O)O)C(=O)O)cc1: -1
Nc1ccn([C@@H]2O[C@H](CO)[C@@H](O)C2O)c(=O)n1 (stereo not given in full): -1

Moving on to another compound below.
Recorded test outcome, item CC(C)c1c(C(=O)Nc2ccccc2)c(-c2ccccc2)c(-c2ccc(F)cc2)n1CC[C@@H](O)C[C@@H](O)CC(=O)O
1

====

- MEASUREMENT NOTES: ATG_NRF2_ARE_CIS: Attagene CIS-FACTORIAL HepG2 Assay for human Nuclear Factor Erythroid 2 Related Factor 2 (NFR2) response to Antioxidant Response Elements (ARE) (AID 2282992);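 on AC50: reporter mRNA level measured by RT-PCR and capillary electrophoresis fluorescence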
- CONDITIONS USED: HepG2 Attagene ARE/NRF2 reporter, transcription factor activity; actives raise or lower the signal
Active and inactive are the calls of the source. How the source made its calls: active means hit-call score of the fitted dose curve at least 0.9, where 1 is the maximum; inactive means score below 0.9.
METRIC: AC50

Below are worked cases with known answers.
O=C1C=CC(=O)N1c1cccc(N2C(=O)C=CC2=O)c1: inactive
Cc1[nH]nc2c1N=C(c1ccccc1Cl)c1cc([N+](=O)[O-])ccc1N2: 19.8 µM (active)
Cn1sccc1=O: 161 µM (active)
COC(=O)C(F)(F)C(F)(F)C(F)(F)C(F)(F)C(F)(F)F: inactive
NC(C(F)(F)F)C(F)(F)F: inactive

Next:
Could you share which AC50 value was measured for COC(O)c1ccccc1 (configuration not stated) ?
inactive

Where do the numbers come from? From PubChem BioAssay (EPA / NIEHS).
